Parameter GI50, tested on UACC-62, listed per item.
I only need the number, in µM, no unit after it.

[
  {
    "Compound": "COc1ccc(Nc2ncccc2C(=O)NCc2cn(Cc3cccc(Oc4ccccc4)c3)nn2)cc1 [Compound 1e]",
    "GI50 / µM": 3.13
  },
  {
    "Compound": "O=C(NCc1cn(Cc2cccc(Oc3ccccc3)c2)nn1)c1cccnc1Nc1ccccc1 [Compound 1a]",
    "GI50 / µM": 3.02
  },
  {
    "Compound": "O=C(NCc1cn(Cc2cccc(Oc3ccccc3)c2)nn1)c1cccnc1NCc1ccc(Cl)cc1 [Compound 1k]",
    "GI50 / µM": 2.08
  },
  {
    "Compound": "O=C(NCc1cn(Cc2cccc(Oc3ccccc3)c2)nn1)c1cccnc1Nc1ccc(F)cc1 [Compound 1b]",
    "GI50 / µM": 6.51
  },
  {
    "Compound": "COc1ccc(Nc2ncccc2C(=O)NCc2cn(Cc3cccc(Oc4ccccc4)c3)nn2)c(OC)c1 [Compound 1g]",
    "GI50 / µM": 1.43
  }
]

Now consider a different compound.
Record COc1cc(Nc2ncccc2C(=O)NCc2cn(Cc3cccc(Oc4ccccc4)c3)nn2)cc(OC)c1 [Compound 1i] has UACC-62 GI50 equal to 3.86
